Test: nuclear p53 accumulation, HPV+ cells – imaging, p53-positive nuclei imaging, 24 h, 48 h (AID 1508601)
Conditions: 24/48 h, measured here: cell number at 24 h, Library stock concentration: 2 mM
Among all 5,700 compounds or so, about 85 (1%) were called active. The sample as a whole holds a higher share of actives than the screen did.
MEASUREMENT LABEL: nuclei count, normalised
A complete answer gives the number followed by the unit.

Can you look up the measured nuclei count, normalised of CS(=O)(=O)c1cccc(CNc2nc(Nc3ccc4c(c3)CCC(=O)N4)ncc2C(F)(F)F)c1 for me?
111%

Look at this compound and give its reported nuclei count, normalised. COc1ccc(Cn2ccc3ccc(C(=O)NO)cc32)cc1
105%

Requested field: nuclei count, normalised. Item: O=Nc1c(O)[nH]c2c(Cl)c(Cl)ccc12
83.2%

Quick check: nuclei count, normalised of CCc1cnn2c(NCc3ccc[n+]([O-])c3)cc(N3CCCCC3CCO)nc12 (stereo not given) ?
24.5%

For c1cc(NCCc2c[nH]c3ccccc23)cc(Nc2ccncc2)c1 , what is its reported nuclei count, normalised?
107%

What measured nuclei count, normalised goes with O=Nc1c(-c2c(O)[nH]c3cc(Br)ccc23)[nH]c2ccccc12 ?
106%

Report nuclei count, normalised for CN1CCC(c2c(O)cc(O)c3c(=O)cc(-c4ccccc4Cl)oc23)C1CO (stereo not given) please.
35.8%

I have this compound here, CN1CCC(c2c(O)cc(O)c3c(=O)cc(-c4ccccc4Cl)oc23)C(O)C1 (stereo not given) , and I need its recorded nuclei count, normalised.
29.8%

Give its nuclei count, normalised value. Item: CC(C)CC(=O)Nc1n[nH]c2c1CN(C(=O)C1CCN(C)CC1)C2(C)C
61%

Suppose we examine the compound CS(=O)(=O)c1ccc(C(CC2CCCC2)C(=O)Nc2nccs2)cc1 (stereo not given) ; what nuclei count, normalised value has been reported?
110%

* * *

Experiment: nuclear p53 accumulation, HPV+ cells – imaging, p53-positive nuclei imaging, 24 h, 48 h (AID 1508601)
Conditions: 24/48 h, measured here: cell number at 48 h, Library stock concentration: 4.6 uM
Screen size: about 5,700 compounds; about 85 (1%) were called active. The entries come from a sample that favours actives as a whole.
Kindly state nuclei count, normalised for each of the entries shown.

Entry under review: COC(=O)C#Cc1ccc([N+](=O)[O-])cc1 . Reported nuclei count, normalised?
112%

Query: nuclei count, normalised; subject: CN(NC(=O)CC(=O)NN(C)C(=S)c1ccccc1)C(=S)c1ccccc1
108%

Query (compound): C=C1C(=O)OC(CCCCCCCC)C1C(=O)O (centres undefined) ; field requested: nuclei count, normalised
109%

What value of nuclei count, normalised has been recorded for this entry: CCOC(=O)c1sc(NC(=O)c2ccco2)c(SC#N)c1C
104%

Suppose we examine the compound OC(c1cc(C(F)(F)F)nc2c(C(F)(F)F)cccc12)[C@H]1CCCCN1 (some centres undefined) ; what nuclei count, normalised value has been reported?
112%

May I ask what nuclei count, normalised has been recorded for CN(C)CCC(CSc1ccccc1)Nc1ccc(S(=O)(=O)NC(=O)c2ccc(N3CCN(Cc4ccccc4-c4ccc(Cl)cc4)CC3)cc2)cc1[N+](=O)[O-] (centres undefined) ?
112%

I'd like to know its nuclei count, normalised. The compound in question is O=C(O)c1ccccc1SC1=NS(=O)(=O)c2ccccc21
126%

I have this compound here, CC(=O)OC1C(=O)[C@]2(C)C(O)CC3OC[C@@]3(OC(C)=O)C2C(OC(=O)c2ccccc2)[C@]2(O)CC(OC(=O)C(O)C(NC(=O)c3ccccc3)c3ccccc3)C(C)=C1C2(C)C (some centres undefined) , and I need its recorded nuclei count, normalised.
36.2%

Please look up its nuclei count, normalised: CCCCCCCCCCCCCC=CC(O)C(CO)N(C)C (centres undefined)
107%

* * *

Assay: nuclear p53 accumulation, HPV+ cells – imaging, p53-positive nuclei imaging, 24 h, 48 h (AID 1508601)
Details: 24/48 h, measured here: cell number at 24 h, Library stock concentration: 400 uM
Screen size: about 5,700 compounds; about 85 (1%) were called active. What follows is part of a selection rich in actives, with near analogues and random picks from the rest.
Give nuclei count, normalised for every item shown.
Output spec: scalar in %, unitless text.

Item under review: CC1CCNC(=O)c2cc3ccc(C(=O)Nc4nc5ccccc5n4CCCN(C)C)cc3n21 (stereo unspecified) . Reported nuclei count, normalised?
107

// lookup nuclei count, normalised for CN1CC[C@H](c2c(O)cc(O)c3c(=O)cc(-c4ccccc4Cl)oc23)C(O)C1 (stereo partly specified)
38.3

Quick one: nuclei count, normalised for C=CC(=O)N1CCc2ccc(-n3c(=O)ccc4cnc5ccc(-c6cnn(C)c6)cc5c43)cc21 ?
102

What nuclei count, normalised value was documented for this compound, CC(C)CC(=O)Nc1n[nH]c2c1CN(C(=O)C1CCN(C)CC1)C2(C)C ?
79.8

Looking for the measured nuclei count, normalised of COC(=O)C=CC(=O)N(O)CCCCNCc1ccc(COC(=O)Nc2cccc3ccccc23)cc1 , can you help?
118

Recorded nuclei count, normalised for Nc1ncn([C@@H]2O[C@@H](CO)[C@H](O)[C@@H]2O)c(=O)n1 , please?
116

// nuclei count, normalised lookup, key: COc1ccc(N(C(=O)Nc2c(C)cccc2C)c2cc(Nc3ccc(N4CCN(C)CC4)cc3OC)ncn2)c(OC)c1
93.8

// nuclei count, normalised lookup, key: CCC(C)C(NC(=O)C(C(C)CC)N(C)C(C)=O)C(=O)NC(C(=O)NC(CC(C)C)C(=O)[C@@]1(C)CO1)C(C)O (stereo partly specified)
48.9

What measured nuclei count, normalised goes with CCc1cnn2c(NCc3ccc[n+]([O-])c3)cc(N3CCCCC3CCO)nc12 (stereo unspecified) ?
27.8

// query nuclei count, normalised value for entry OC1CCC(Nc2ncc3nc(Nc4c(F)cc(F)cc4F)n(C4CCOC4)c3n2)CC1 (stereo unspecified)
111

Need nuclei count, normalised of O=C(Cc1ccc(-c2ccc(OCCN3CCOCC3)cc2)cn1)NCc1ccccc1 , thanks.
41.4

Which nuclei count, normalised is listed for O=C1NCCCc2c1oc1ccc(O)cc21 ?
92.2

Could you tell me which nuclei count, normalised is on file for CCCCc1nc2cc(C=CC(=O)NO)ccc2n1CCN(CC)CC ?
95.2

Query: nuclei count, normalised; subject: CC(C)CC(NC(=O)C(O)C(N)Cc1ccccc1)C(=O)O (stereo unspecified)
119

Which nuclei count, normalised is reported for this compound? COC(=O)N1C(=O)[C@](c2ccccc2)(C2CCCC2)N1C(=O)OC
87.6

What does the data say about its nuclei count, normalised? Entry: O=C(O)C=Cc1ccc(Cn2ccnc2)cc1
104

# input compound: Fc1cc(-c2ccnc(Nc3ccc(-n4cnc(N5CCOCC5)n4)cc3)n2)cc(N2CCOCC2)c1 ; wanted: its nuclei count, normalised
101

Which nuclei count, normalised value belongs to O=C(Nc1ccc(-c2ccnc(Nc3ccc(N4CCOCC4)cc3)n2)cc1)C1CCCN1 (stereo unspecified) ?
116

Please report the recorded nuclei count, normalised for CC(CCC(=O)O)C1CC[C@H]2[C@@H]3C(O)C[C@@H]4CC(O)CC[C@]4(C)[C@@H]3CC[C@]12C (stereo partly specified) .
104

Looking for the measured nuclei count, normalised of O=Nc1c(-c2c(O)[nH]c3cc(Br)ccc23)[nH]c2ccccc12 , can you help?
111

Look up nuclei count, normalised for this compound: Cn1cc(C2=C(c3cn(CCCSC(=N)N)c4ccccc34)C(=O)NC2=O)c2ccccc21
104

I have this compound here, CC(=O)NC(CC(C)C)C(=O)NC(CC(C)C)C(=O)NC(C=O)CCCN=C(N)N (stereo unspecified) , and I need its recorded nuclei count, normalised.
87.3

Please look up its nuclei count, normalised: CN1CCN(c2ccc(Nc3c4ccccc4nc4ccccc34)cc2)CC1
95.8

What value of nuclei count, normalised has been recorded for this entry: CCCCc1ccc(N=CNO)c(C)c1
87.8

nuclei count, normalised for Nc1ccccc1NC(=O)c1ccc(CNc2nccc(-c3cccnc3)n2)cc1 ?
124

Which nuclei count, normalised is listed for CN1CCC(c2c(O)cc(O)c3c(=O)cc(-c4ccccc4Cl)oc23)C(O)C1 (stereo unspecified) ?
49.2

Find the recorded nuclei count, normalised belonging to CN1CCN(C(=S)SSC(=S)N2CCN(C)CC2)CC1 and report it.
109

Record request: nuclei count, normalised value, item COC(=O)c1c(NC(=O)CC2SC(=N)NC2=O)sc(C)c1C (stereo unspecified)
104

Sample COc1ccc2nc3ccc(OC)cc3c(SCCCN)c2c1 — what was its nuclei count, normalised?
114

Fill in the blank: the reported nuclei count, normalised of CC(C)C(N)C(=O)NC(Cc1ccccc1)C(=O)O (stereo unspecified) is ____.
113

Reported nuclei count, normalised for CCC(=O)N1CCN(c2ccc(-n3c(=O)ccc4cnc5ccc(-c6cnc7ccccc7c6)cc5c43)cc2C(F)(F)F)CC1 : what is it?
59.7

// query nuclei count, normalised value for entry CC(C)N(CCCNC(=O)Nc1ccc(C(C)(C)C)cc1)CC1OC(n2cc(Br)c3c(N)ncnc32)C(O)C1O (stereo unspecified)
101

Form field: reported nuclei count, normalised of NC(=O)c1ccc(-c2nc(-c3ccc4c(c3)OCCO4)c(-c3ccccn3)[nH]2)cc1
108

Fill blank: measured nuclei count, normalised of the compound CS(=O)(=O)c1ccc(C(CC2CCCC2)C(=O)Nc2nccs2)cc1 (stereo unspecified) is ____.
108

Which nuclei count, normalised reading was recorded for the compound O=C(NOCC(O)CO)c1ccc(F)c(F)c1Nc1ccc(I)cc1F (stereo unspecified) ?
101

Any idea what its nuclei count, normalised is? The compound is CC(C)C1C(=O)NC(CCCN=C(N)N)C(=O)NCC(=O)NC(CC(=O)O)C(=O)NC(Cc2ccccc2)C(=O)N1C (stereo unspecified)
96.6

Fill in: nuclei count, normalised of COc1ccc(Cn2ccc3ccc(C(=O)NO)cc32)cc1 is ___
107

Sample CN1CCC(c2c(O)cc(O)c3c(=O)cc(-c4ccccc4Cl)oc23)C1CO (stereo unspecified) — what was its nuclei count, normalised?
85.7

# get_value(readout='nuclei count, normalised', item= c1cc(NCCc2c[nH]c3ccccc23)cc(Nc2ccncc2)c1 )
107

Quick check: nuclei count, normalised of CC(C)c1nn(-c2c(Cl)cccc2Cl)c2nc(Cc3ccc(OCCO)cc3)[nH]c(=O)c12 ?
36

Can you look up the measured nuclei count, normalised of Cn1cc(CNCC2CCN(c3ncc(C(=O)NO)cn3)CC2)c2ccccc21 for me?
49.1
